Let's look at some IC50 data for Cytochrome P450 2C9 (Homo sapiens) that I collected from the literature.

// query For the molecule Cc1cc2c(cc1C#Cc1ncccc1S(=O)(=O)Nc1noc(C)c1Cl)C(C)(C)OC2 , give its reported IC50.
// result 1 to 10 µM

// query For O=C(c1cc(Cl)c(O)c(Cl)c1)N1CCOc2cc(Cl)ccc21 , write its IC50.
// result 11 µM

// query Find the measured IC50 of Cc1nc(C(=O)Nc2ccc(F)c([C@@]3(C)N=C(N)O[C@H](C(F)(F)F)[C@@H]3C)c2)co1 and report it.
// result ≥ 20 µM

// query Supply IC50 value. Item: CCc1ccc(Nc2ccc(C(=O)c3c[nH]c4ncnc(NCCCOC)c34)c(F)n2)cn1
// result < 5 µM

// query Determine its reported IC50: CCOC(=O)COc1c(Cl)cc(C(=O)N2CCOc3ccccc32)cc1Cl
// result > 50 µM

// query Return IC50 for the following molecule: CCc1nn2cc(F)c(N3CCN(CC(=O)N4CC(O)C4)CC3)cc2c1N(C)c1nc(-c2ccc(F)cc2)c(C#N)s1
// result 17.3 µM

// query Indicate the recorded IC50 value for this molecule: CC(C)c1cccc2c1OC(C(C)C)CN2C(=O)/C=C/C(=O)O (stereo not drawn)
// result > 50 µM

// query Fill in reported IC50 for this entry: N#Cc1ccc(C(=O)Nc2ccc(F)c([C@@]3(CF)N=C(N)O[C@@H]4CC(F)(F)C[C@@H]43)c2)nc1
// result > 10 µM

// query Let me know recorded IC50 for CCc1nn2cc(F)c(N3CC4(CN(C(=O)[C@H]5CCOC5)C4)C3)cc2c1N(C)c1nc(-c2ccc(F)cc2)c(C#N)s1 , thanks.
// result 5.69 µM

// query Complete the entry with IC50 for C[C@@H]1CCc2c(Oc3c(Cl)cc(-n4nc(C#N)c(=O)[nH]c4=O)cc3Cl)n[nH]c(=O)c21 (single isomer, unassigned)
// result 15.6 µM

// query Item O=C(O)[C@@H]1CCCN(S(=O)(=O)c2ccccc2C(F)(F)F)C1 : provide IC50
// result > 50 µM

// query Return reported IC50. Input molecule: CCOc1ccc(Nc2ccc(Cc3c[nH]c4ncc(C)cc34)c(F)n2)cn1
// result > 10 µM

// query Provide only the value of recorded IC50 for Cc1cnc(-c2cc(OC(C)C(C)O)cc(C(=O)N[C@H](C)c3cnc(C(F)(F)F)nc3)c2)s1 (single isomer, unassigned)
// result > 20 µM

// query Please indicate IC50 recorded for Cc1cc(Nc2ncc(Cl)c(Nc3cn(C)nc3S(=O)(=O)C(C)C)n2)c(OC2CC2)cc1C1CCCN(C)C1 (stereo not drawn)
// result > 10 µM

// query Assign IC50 to the following record: CCc1ccc(Nc2ccc(Cc3c[nH]c4ncnc(OCCOC)c34)c(F)n2)cn1
// result > 10 µM

---

Literature-derived IC50 for UniProt P11712 follows.

// query State IC50 (UniProt P11712) of C[C@H]1SC(N)=N[C@](C)(c2cc(NC(=O)c3cnc(OCF)cn3)ccc2F)C12CC(F)(F)C2 .
// result ≥ 10 µM

// query For UniProt P11712, give IC50 of the listed compound: NS(=O)(=O)c1ccc2c(c1)N(C(=O)c1cc(Cl)c(O)c(Cl)c1)CCO2
// result > 50 µM

// query Determine reported IC50 for COc1ccc(Nc2ccc(C(=O)c3c[nH]c4ncnc(NC5CCCCC5)c34)c(F)n2)cn1 ; test system: UniProt P11712.
// result > 10 µM

// query Tell me its IC50 on UniProt P11712: Cc1cccc2c1Oc1ccc(Cl)cc1N=C2N1CCNCC1
// result > 10 µM

// query # lookup: UniProt P11712 IC50, key = O=C(O)COc1cccc(Nc2ccc3c(n2)N(C(=O)Nc2ccccc2)CCO3)c1
// result > 20 µM

// query Give measured IC50 for C[C@@H](c1ccccc1-c1ccc(F)cc1)n1cncc1C(=O)N1CCC(N2CC[C@H](O)[C@@H](F)C2)CC1 (UniProt P11712).
// result > 10 µM

// query Please report the measured IC50 for Cc1cc(C(=O)Nc2ccc(F)c([C@]3(C)C=CSC(N)=N3)c2)n(C)n1 tested on UniProt P11712.
// result > 20 µM

// query Given COc1ccccc1-c1ccccc1[C@H](C)n1cncc1C(=O)N1CCC2NCCO[C@@H]2C1 (stereo partly drawn) , report its IC50 on UniProt P11712.
// result > 10 µM

// query Jot down IC50 (UniProt P11712) of Cc1ccc(Oc2cc(=O)n(C)c(Nc3ccc(I)cc3F)c2C(N)=O)cn1 .
// result > 10 µM

// query Enter IC50 (test system UniProt P11712) for NC1=N[C@](CF)(c2cc(NC(=O)c3cnc(C(F)F)cn3)ccc2F)[C@H]2CC(F)(F)C[C@H]2O1
// result > 10 µM

// query Report value: IC50, system: UniProt P11712, compound: O=C(c1cnc(O)c(Cl)c1)N1CCOc2ccccc21
// result > 50 µM

// query Consider the compound C[C@@H](c1ccccc1-c1ccc(F)cc1)n1cncc1C(=O)N1CCC(N2CCNC(=O)CC2)CC1 tested on UniProt P11712; state its IC50.
// result > 10 µM

// query State IC50 (UniProt P11712) of CCCCOCCOc1ccc(-c2ccc3c(c2)C=C(C(=O)Nc2ccc([S+]([O-])Cc4c(CC)ccnc4C)cc2)CCCN3CC2CCOCC2)cc1 (single isomer, unassigned) .
// result > 50 µM

// query Provide measured IC50 on UniProt P11712 for [2H]c1c(C)c(Oc2cc(C(C([2H])([2H])[2H])C([2H])([2H])[2H])c(=O)[nH]n2)c(Cl)c([2H])c1-n1nc(C#N)c(=O)[nH]c1=O please.
// result 41.4 µM

// query Please respond with reported IC50 (system UniProt P11712) for Cn1cc(S(=O)(=O)N2CCC3=Cc4c(cnn4-c4ccc(F)cc4)C[C@]3(C(=O)c3cc(C(F)(F)F)ccn3)C2)cn1 .
// result 2.1 µM

---

The entries below pair molecules with pIC50 values for Cytochrome P450 2C9 (Homo sapiens, UniProt P11712), as found in several publications.
pIC50: −log10 of the molar value.

// query Tell me pIC50 reported for C#Cc1ccnc2[nH]cc(C(=O)c3c(F)ccc(NS(=O)(=O)c4ccc(C(F)(F)F)cc4)c3F)c12
// result > 5.30

// query Tell us which pIC50 value is on record for COCCCNc1ncnc2[nH]cc(C(=O)c3ccc(Nc4ccc(OC)nc4)nc3F)c12
// result < 5.00

// query Provide one value: measured pIC50 of CCOc1ccc(Nc2ccc(Cc3c[nH]c4ncnc(OCCOC)c34)c(F)n2)cn1
// result < 5.00

// query For the molecule CCCNc1ncnc2[nH]cc(C(=O)c3ccc(Nc4ccc(CC)nc4)nc3F)c12 , report pIC50.
// result 5.00 to 5.30

// query Provide only the value of recorded pIC50 for CN1CCc2cc(N3CCn4nc(NC(=O)c5ccc(C(=O)NCC#N)s5)cc43)ccc2C1=O
// result < 4.70

// query Let me know recorded pIC50 for CCc1ccc(Nc2ccc(C(=O)c3c[nH]c4ncnc(NC5CCC5)c34)c(F)n2)cn1 , thanks.
// result < 5.00

// query Give the value of pIC50 reported for the following: CC(C)[C@H]1Oc2c(Cl)cc(Cl)cc2N(CCC(=O)O)C1=O
// result < 4.30

// query Please give measured pIC50 of the following entry: CO[C@H]1[C@@H](CF)OC(N)=N[C@]1(C)c1cc(NC(=O)c2ccc(C#N)cn2)ccc1Cl
// result ≤ 4.70

// query Return reported pIC50. Input molecule: CC1CCC(Nc2ncc(Cc3c[nH]c4ncc(Cl)cc34)cn2)CC1 (centres unmarked)
// result < 5.00

// query Give me measured pIC50, please, for this molecule: Cc1cc(C)c2c(c1)N(CCC(=O)O)C(=O)[C@H](C(C)C)O2
// result < 4.30

// query Quickly give me recorded pIC50 for C[C@@H](c1ccccc1-c1cccc2c1OCC2)n1cncc1C(=O)N1CCC2NCCO[C@@H]2C1 (some centres unmarked)
// result < 5.00

// query Determine its reported pIC50: COc1ccc(Nc2ccc(Cc3c[nH]c4ncc(C)cc34)c(F)n2)cn1
// result < 5.00

// query Tell me pIC50 reported for NC(=O)CNC(=O)/C=C1/c2ccccc2N(C(=O)c2ccc(OCC3CC3)cc2C(F)(F)F)CCC1(F)F
// result < 4.30

// query State its pIC50 for this molecule: Cc1ccn(-c2ccc(C(=O)N3CCC(C)(C(=O)NC(C)CO)Cc4ccccc43)c(Cl)c2)n1 (single isomer, unassigned)
// result 4.33

// query State, in one line, measured pIC50 of O=C(c1cc(Cl)c(O)c(Cl)c1)N1CCN(C(=O)c2cc(Cl)c(O)c(Cl)c2)c2ccccc21
// result 5.22

// query Provide one value: measured pIC50 of O=C(c1cc(Cl)c(O)c(Cl)c1)N1CCCOc2ccccc21
// result < 4.30

// query Tell us which pIC50 value is on record for O=C(O)c1ccc2c(c1)N(C(=O)c1cc(Cl)c(O)c(Cl)c1)CCO2
// result < 4.30

// query # return recorded pIC50 for entry C[C@]1(c2nc(NC(=O)c3ccc(C#N)cn3)ccc2F)N=C(N)S[C@H](CF)[C@@H]1F
// result ≤ 5.00

// query Provide one value: measured pIC50 of CCc1ccc(Nc2ccc(C(=O)c3c[nH]c4ncnc(NCC(C)C)c34)c(F)n2)cn1
// result < 5.00

// query Answer with reported pIC50 of Cc1cc(Cl)cc2c1OC(C(C)C)CN2C(=O)/C=C/C(=O)O (centres unmarked)
// result < 4.30

// query Entry COc1cc2c(NC3CCN(C(C)C)CC3)nc(-n3cccn3)nc2cc1OCCCN1CCCC1 needs its pIC50 filled in; supply it.
// result < 4.00

// query Tell me its pIC50 given CNC(=O)c1cc(COC2=NN=C(Nc3ccc(Cl)cc3)C3C=CSC23)ccn1 (centres unmarked) as the entry.
// result < 4.70

// query Quick one: give measured pIC50 for C[C@@]1(c2cc(-c3cccnc3F)ccc2F)Cc2nccn2C(N)=N1
// result < 4.70

// query Entry C[C@]1(c2cc(NC(=O)c3cnc(OCF)cn3)ccc2F)N=C(N)SCC12CC(F)(F)C2 needs its pIC50 filled in; supply it.
// result ≤ 4.70

// query Using known records, supply pIC50 for CCCNc1ncnc2[nH]cc(C(=O)c3ccc(Nc4cncc(OC)c4)nc3F)c12
// result < 5.00

// query State, in one line, measured pIC50 of COc1cc2ccc(C(O)(c3ccncn3)C(C)C)cc2cc1OC (centres unmarked)
// result 5.11

// query For the molecule CCOc1ccc(S(=O)(=O)N2C[C@@H](C)[C@@H](n3nc(CC(=O)O)c4ccccc43)C2)cn1 , give its measured pIC50 value.
// result < 4.70

// query Identify measured pIC50 corresponding to Cc1cnc2[nH]cc(Cc3ccc(Nc4ccc(C)nc4)nc3F)c2c1
// result < 5.00

// query Provide only the value of recorded pIC50 for COc1cc2c(NC3CCS(=O)(=O)CC3)nc(N3CCOCC3)nc2cc1OCCCN1CCCC1
// result < 4.00

// query Recall and state the measured pIC50 for CC(c1cncn1[C@H](C)c1ccc(F)cc1)N1CCN(S(=O)(=O)c2cnc(N3CCN4C[C@H](O)C[C@H]4C3)s2)CC1 (some centres unmarked) .
// result 5.21

// query Given the molecule COc1cc2ccc(C(O)(c3cncs3)C(C)C)cc2cc1OC (centres unmarked) , write its reported pIC50.
// result 4.48

// query Report pIC50, nothing else, for this molecule: CCc1ccc(Nc2ccc(C(=O)c3c[nH]c4ncnc(NC5CCCC5)c34)c(F)n2)cn1
// result > 5.30
